system_name: Thermus thermophilus TtPFK optical probe 254/255-TtPFK-I253K/Q254L/R255L/G256F-cpYFP-Y1S, SEQ ID NO: 12 (Thermus thermophilus, UniProt P21777, form not given/G256F/I253K/Q254L/R255L)
Construct: the numbering corresponds to the full length of the phosphoenolpyruvate-sensitive polypeptide; His-tag
experiment_description: phosphoenolpyruvate titration of purified optical probe (fluorescence ratio)
measurement_conditions: phosphoenolpyruvate 0 to 10 mM, purified probe treated 10 minutes, ex 420/485 nm, em 528 nm
observable: Kd (µM)

{"molecule": "C=C(OP(=O)(O)O)C(=O)O [phosphoenolpyruvate, Phosphoenolpyruvate]", "unit_info": "µM", "observed_value": 17.5}
